# tgt: helicase domain of the Pol θ protein (Homo sapiens)
# Construct: The helicase domain of the Pol θ protein was purified from insect protein expression system; made in house; host or cells: insect protein expression system
# Sequence (O75417 102-554 limits assumed): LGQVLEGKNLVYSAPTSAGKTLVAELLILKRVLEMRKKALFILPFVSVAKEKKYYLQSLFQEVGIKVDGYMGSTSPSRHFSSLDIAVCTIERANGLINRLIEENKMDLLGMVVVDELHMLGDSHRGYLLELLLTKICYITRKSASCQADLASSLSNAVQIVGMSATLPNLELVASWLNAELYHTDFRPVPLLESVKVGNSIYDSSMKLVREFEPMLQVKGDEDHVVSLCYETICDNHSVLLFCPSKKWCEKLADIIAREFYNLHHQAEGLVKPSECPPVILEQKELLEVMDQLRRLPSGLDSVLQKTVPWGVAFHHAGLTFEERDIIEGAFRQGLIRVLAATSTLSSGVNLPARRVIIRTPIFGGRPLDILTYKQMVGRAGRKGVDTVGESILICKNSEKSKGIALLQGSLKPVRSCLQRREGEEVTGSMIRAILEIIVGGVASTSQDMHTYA
# assay.procedure: Biochemical Activity Assay (ADP Glo Assay) of Pol θ inhibitor, ATPase activity
# condition.info: Biochemical assay IC50 (nM), ADP-Glo assay, ATPase activity of Pol θ helicase domain, ssDNA substrate
Catalogue of IC50 readings, one per entry.
// note: answer is a bare numeric in nM

>>> measured_result("[2H]C1(O)CCN(c2ccc3nc(NC(=O)c4cnc(C)cc4-c4cc(Cl)ncc4OC)sc3n2)CC1")
10
>>> measured_result("COc1cnc(Cl)cc1-c1cc(C)ncc1C(=O)Nc1nc2ccc(N3CCOCC3)cc2s1")
25.4
>>> measured_result("COc1cnc(Cl)cc1-c1cc(C)ncc1C(=O)Nc1nc2c(s1)CN(C(=O)c1ccccc1)CC2")
29.3

Now examine the next entry.
Please give the measured IC50 for this compound: `[2H]C([2H])([2H])c1cc(-c2cc(Cl)ncc2OC)c(C(=O)Nc2nc3ccc(N4CCC(O)CC4)nc3s2)cn1` 6.71
